# experimental-target: Endothelial PAS domain-containing protein 1 (Homo sapiens) (UniProt Q99814)
# Sequence (Q99814 whole entry, the tested form may be a part): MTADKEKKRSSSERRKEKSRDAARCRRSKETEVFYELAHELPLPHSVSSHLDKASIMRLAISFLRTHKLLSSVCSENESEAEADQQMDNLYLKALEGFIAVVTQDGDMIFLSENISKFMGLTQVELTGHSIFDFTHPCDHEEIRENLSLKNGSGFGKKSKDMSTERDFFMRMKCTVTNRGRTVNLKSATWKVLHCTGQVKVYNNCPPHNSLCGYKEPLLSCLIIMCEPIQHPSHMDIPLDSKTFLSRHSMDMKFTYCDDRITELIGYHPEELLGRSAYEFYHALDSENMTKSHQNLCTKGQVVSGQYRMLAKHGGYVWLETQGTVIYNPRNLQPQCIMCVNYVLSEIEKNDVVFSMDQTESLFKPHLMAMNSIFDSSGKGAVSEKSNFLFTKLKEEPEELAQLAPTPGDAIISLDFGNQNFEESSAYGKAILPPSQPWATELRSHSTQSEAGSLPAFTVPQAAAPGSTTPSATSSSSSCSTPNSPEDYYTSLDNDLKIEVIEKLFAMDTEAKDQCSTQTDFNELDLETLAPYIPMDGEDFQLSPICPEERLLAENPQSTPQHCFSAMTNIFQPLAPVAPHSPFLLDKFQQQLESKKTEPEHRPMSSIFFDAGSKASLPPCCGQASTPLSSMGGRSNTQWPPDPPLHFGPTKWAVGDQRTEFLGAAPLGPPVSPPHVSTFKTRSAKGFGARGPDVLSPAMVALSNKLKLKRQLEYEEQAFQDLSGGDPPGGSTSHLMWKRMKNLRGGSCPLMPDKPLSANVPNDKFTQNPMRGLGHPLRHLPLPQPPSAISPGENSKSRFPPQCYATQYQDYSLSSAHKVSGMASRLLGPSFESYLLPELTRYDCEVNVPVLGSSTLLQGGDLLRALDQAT
# test-name: Agonist activity at human HIF-2alpha expressed in human 786-0 cells assessed as increase in GLUT1 transcription level at 20 uM incubated for 24 hrs by RT-PCR analysis relative to control
# Type: cell-based
# conditions-used: filed as agonist
observed-property: Activity (%)
A number alone suffices; assume %.

Below are worked cases with known answers.
compound: O=S1(=O)N=C(Nc2cc(C(F)(F)F)cc(C(F)(F)F)c2)c2cc(Br)ccc21
unit-of-measure: %
Activity: 218
--
compound: O=S1(=O)N=C(Nc2cc(F)cc(F)c2)c2ccccc21
unit-of-measure: %
Activity: 185
--
compound: O=S1(=O)N=C(Nc2cc(C(F)(F)F)cc(C(F)(F)F)c2)c2ccccc21
unit-of-measure: %
Activity: 132

Ask: Consider the compound FC(F)(F)c1cc(Nc2csc3ccccc23)cc(C(F)(F)F)c1 and give its measured Activity.
Reply: 87.4

Ask: Consider the compound [O-][s+]1cc(Nc2cc(C(F)(F)F)cc(C(F)(F)F)c2)c2ccccc21 (stereo not drawn) and give its measured Activity.
Reply: 108

Ask: Consider the compound O=S1(=O)N=C(Nc2ccc(C(F)(F)F)cc2)c2ccccc21 and give its measured Activity.
Reply: 76.8

Ask: Consider the compound O=S1(=O)N=C(Nc2cccc(C(F)(F)F)c2)c2ccccc21 and give its measured Activity.
Reply: 80.9

Ask: Consider the compound O=S1(=O)N=C(Nc2ccccc2)c2ccccc21 and give its measured Activity.
Reply: 96.3
